Note to self: these molecules have IC50 reported for Cathepsin B (Homo sapiens, UniProt P07858) in various publications.
Write it as a number; the unit nM goes unstated.

Worked cases, IC50 given:
>  <ITEM_SMILES>
CC[C@H](NC(=O)[C@H](CC(F)(F)CC1CC1)NCC(F)(F)Oc1ccc(F)cc1)C(=O)C(=O)NC1CC1

>  <UNIT_OF_MEASURE>
nM

>  <EXPERIMENTAL_VALUE>
23

$$$$
>  <ITEM_SMILES>
Nc1nnc2nc3c(nn12)-c1ccccc1C3=O

>  <UNIT_OF_MEASURE>
nM

>  <EXPERIMENTAL_VALUE>
103

$$$$

// below: IC50 requested for another molecule
**Query** // fetch IC50; item: "CS(=O)(=O)c1cccc(-c2ccc3cc(C(=O)NC4(C(=O)NC5(C#N)CC5)CCCCC4)oc3c2)c1" ; system: Cathepsin B (Homo sapiens, UniProt P07858)
**Result** 373

---

Note to self: these compounds have log10 of IC50 reported for Cathepsin B (Homo sapiens, UniProt P07858) in various publications.
Hello, just confirming the data are log10 of IC50 with units of nM.

>  <COMPOUND>
N#CC1(NC(=O)C2(NC(=O)c3cc4ccc(-c5ccc6ncoc6c5)cc4o3)CCC(F)(F)CC2)CC1

>  <log10 of IC50>
3.88

$$$$

**Query** // fetch log10 of IC50; item: COC(=O)CC(NC(=O)C(NC(=O)OCc1ccccc1)C(C)C)C(=O)CF (stereo not drawn) ; system: Cathepsin B (Homo sapiens, UniProt P07858)
**Result** 2.48

**Query** // fetch log10 of IC50; item: "CS(=O)(=O)c1ccc(-c2ccc3cc(C(=O)NC4(C(=O)NC5(C#N)CC5)CCCCC4)oc3c2)c(F)c1" ; system: Cathepsin B (Homo sapiens, UniProt P07858)
**Result** 1.89

**Query** // fetch log10 of IC50; item: "CC(C)Cc1nnc2nc3c(nn12)C(=O)c1ccccc1-3" ; system: Cathepsin B (Homo sapiens, UniProt P07858)
**Result** 3.66

**Query** // fetch log10 of IC50; item: "CC(C)c1nnc2nc3c(nn12)C(=O)c1ccccc1-3" ; system: Cathepsin B (Homo sapiens, UniProt P07858)
**Result** 3.96

**Query** // fetch log10 of IC50; item: "O=C(NCCc1cccs1)N[C@H]1CCC(=O)N2CCC[C@@H](C(=O)N[C@@H](Cc3ccccc3)C(=O)CN3CCN(CC(=O)N4CCCC4)CC3)N2C1=O" ; system: Cathepsin B (Homo sapiens, UniProt P07858)
**Result** 4.26

**Query** // fetch log10 of IC50; item: "N#CC1(NC(=O)C2(NC(=O)c3cc4ccc(-c5ccc(-n6cncn6)c(OC(F)F)c5)cc4o3)CCC(F)(F)CC2)CC1" ; system: Cathepsin B (Homo sapiens, UniProt P07858)
**Result** 3.40

**Query** // fetch log10 of IC50; item: "N#CC1(NC(=O)C2(NC(=O)c3cc4ccc(-c5ccc(-n6cncn6)cc5)cc4o3)CCCCC2)CC1" ; system: Cathepsin B (Homo sapiens, UniProt P07858)
**Result** 2.93

**Query** // fetch log10 of IC50; item: "C[C@H](NC(=O)[C@@H]1CCCN2C(=O)CC[C@H](NC(=O)Nc3ccc(Oc4ccccc4)cc3)C(=O)N12)C(=O)COC(=O)c1c(Cl)cccc1Cl" ; system: Cathepsin B (Homo sapiens, UniProt P07858)
**Result** 3.95

**Query** // fetch log10 of IC50; item: "N#CC1(NC(=O)C2(NC(=O)c3cc4ccc(-c5ccc(C6(O)CCS(=O)(=O)CC6)cc5)cc4o3)CCCCC2)CC1" ; system: Cathepsin B (Homo sapiens, UniProt P07858)
**Result** 2.08

**Query** // fetch log10 of IC50; item: O=C(NCCNS(=O)(=O)c1ccc([N+](=O)[O-])cc1)C(=O)C(Cc1ccccc1)NC(=O)c1cc(C#Cc2ccccc2)nc2ccccc12 (single isomer, unassigned) ; system: Cathepsin B (Homo sapiens, UniProt P07858)
**Result** 2.54

**Query** // fetch log10 of IC50; item: "CS(=O)(=O)c1ccc(-c2ccc3cc(C(=O)NC4(C(=O)NC5(C#N)CC5)CCC(F)(F)CC4)oc3c2)cc1" ; system: Cathepsin B (Homo sapiens, UniProt P07858)
**Result** 2.94

**Query** // fetch log10 of IC50; item: O=C(NOCc1ccccc1)C(=O)C(Cc1ccccc1)NC(=O)c1cc(C#Cc2ccccc2)nc2ccccc12 (stereo not drawn) ; system: Cathepsin B (Homo sapiens, UniProt P07858)
**Result** 2.52

---

Note to self: these compounds have pIC50 reported for Cathepsin B (Homo sapiens, UniProt P07858) in various publications.
Just so you know, pIC50 here is -log10 of the concentration in molar units; reply with that number alone.

**Query** Given "N#CC1(NC(=O)C2(NC(=O)c3cc4ccc(-c5ccc(C6(N)COC6)cc5)cc4o3)CCC(F)(F)CC2)CC1" , respond with its pIC50.
**Result** 7.07

**Query** Given "C=CCOC(=O)CC[C@H](NC(=O)[C@@H]1CCCN2C(=O)CC[C@H](NS(=O)(=O)c3ccc(C(F)(F)F)cc3)C(=O)N12)C(=O)COC(=O)c1c(Cl)cccc1Cl" , respond with its pIC50.
**Result** 5.22

**Query** Given CCCCCCCCCCON=C1c2ccccc2-c2nn3nnnc3nc21 (mixture of isomers) , respond with its pIC50.
**Result** 4.80

**Query** Given "CC(C)C[C@@H]1NC(=O)[C@@H](NC(=O)OCc2ccccc2)Cc2ccc(cc2)OCCCCC[C@@H](C=O)NC1=O" , respond with its pIC50.
**Result** 6.11

**Query** Given CC(C)CC(CC[S+]([O-])c1ccc2ccccc2c1)C(=O)N[C@H](C=O)CC(C)C (stereo partly drawn) , respond with its pIC50.
**Result** 7.22

**Query** Given "O=C(NCCNS(=O)(=O)c1ccccc1)C(=O)[C@H](Cc1ccccc1)NC(=O)c1cc(C#Cc2ccccc2)nc2ccccc12" , respond with its pIC50.
**Result** 6.43

**Query** Given "COc1cc(-c2ccc3cc(C(=O)NC4(C(=O)NC5(C#N)CC5)CCC(F)(F)CC4)oc3c2)ccc1OC(F)F" , respond with its pIC50.
**Result** 5.40

**Query** Given "N#CC1(NC(=O)C2(NC(=O)c3cc4ccc(-c5ccc(C6(O)CCOCC6)cc5)cc4o3)CCCCC2)CC1" , respond with its pIC50.
**Result** 6.31

**Query** Given "Cc1nnc2nc3c(nn12)-c1ccccc1C3=O" , respond with its pIC50.
**Result** 6.74

**Query** Given "CS(=O)(=O)N[C@H]1CCC(=O)N2CCC[C@@H](C(=O)N[C@@H](Cc3ccccc3)C(=O)COC(=O)c3c(Cl)cccc3Cl)N2C1=O" , respond with its pIC50.
**Result** 4.74

**Query** Given "CC(C)Cc1nnc2nc3c(nn12)-c1ccccc1C3=O" , respond with its pIC50.
**Result** 6.58

**Query** Given "COc1ccc(-c2ccc3cc(C(=O)NC4(C(=O)NC5(C#N)CC5)CCC(F)(F)CC4)oc3c2)cc1OC" , respond with its pIC50.
**Result** 5.60

---

Note to self: these molecules have pIC50 reported for Cathepsin B (Homo sapiens, UniProt P07858) in various publications.
Just so you know, pIC50 here is -log10 of the concentration in molar units; reply with that number alone.

Worked cases, pIC50 given:
>  <MOLECULE>
CC(C)C[C@H](NC(=O)[C@@H]1CCCN2C(=O)CC[C@H](NS(C)(=O)=O)C(=O)N12)C(=O)COC(=O)c1c(Cl)cccc1Cl

>  <pIC50>
5.82

$$$$
>  <MOLECULE>
N#CC1(NC(=O)C2(NC(=O)c3cc4ccc(-c5ccc(C6(O)COC6)cc5)cc4o3)CCCCCC2)CC1

>  <pIC50>
6.48

$$$$
>  <MOLECULE>
CS(=O)(=O)c1ccc(-c2ccc3cc(C(=O)NC4(C(=O)NC5(C#N)CC5)CCCCC4)oc3n2)cc1

>  <pIC50>
6.70

$$$$
>  <MOLECULE>
N#CC1(NC(=O)C2(NC(=O)c3cc4ccc(-c5ccc(C(O)C(F)F)cc5)cc4o3)CCCCC2)CC1 (centres unmarked)

>  <pIC50>
6.99

$$$$
>  <MOLECULE>
O=C1c2ccccc2-c2nn3c(CO)nnc3nc21

>  <pIC50>
6.26

$$$$

// below: pIC50 requested for another molecule
**Query** Given "COc1cccc(C(=O)N[C@H]2CCC(=O)N3CCC[C@@H](C(=O)N[C@@H](Cc4ccccc4)C(=O)COC(=O)c4c(Cl)cccc4Cl)N3C2=O)c1" , respond with its pIC50.
**Result** 5.15
